# System: corn (Zea mays)
# assay remarks: Test C preemergence
# Type: in vivo
# run conditions: preemergence; Rate 125 g/ha; scale 0 to 100, 0 no effect, 100 complete control
Some compounds, each annotated with its measured Plant response rating, Corn.
Please state the value as a number alone, without comment.

CC(C)(C)c1ccn(C2CCN(c3cccc(Br)c3)C2=O)n1 (stereo not shown) ... 0
CCC(CC)c1ccn(C2SCN(c3cccc(C(F)(F)F)c3)C2=O)n1 (stereo not shown) ... 20
CCC(C)c1ccn(C2SCN(c3cccc(OC(F)(F)F)c3)C2=O)n1 (stereo not shown) ... 20
CC(C)c1ccn(C2SCN(c3cccc(OC(F)(F)F)c3)C2=O)n1 (stereo not shown) ... 40
CC(C)(C)c1ccn(C2CCN(c3ccc(Cl)c(Br)c3)C2=O)n1 (stereo not shown) ... 0

For the compound O=C1C(n2ccc(C3CCC3)n2)SCN1c1cccc(C(F)(F)F)c1 (stereo not shown) , what Plant response rating, Corn is on record?
40

So what's the measured Plant response rating, Corn for this one? CC1(c2ccn(C3OCN(c4cccc(C(F)(F)F)c4)C3=O)n2)CC1 (stereo not shown)
0

---

# System: rice (Oryza saliva)
# assay remarks: Test B preemergence
# Type: in vivo
# run conditions: Preemergence, Rate 500 g/ha; scale 0 to 100, 0 no effect, 100 complete control
Below, each entry is listed alongside its reported Plant response rating, Rice.
Number only, no unit.

COc1cc(N2CCC(n3ccc(C(C)C)n3)C2=O)ccc1C (stereo not drawn) ... 100
O=C1C(n2cccn2)CCN1c1cccc(C(F)(F)F)c1 (stereo not drawn) ... 0

Requested read-out: Plant response rating, Rice. Entry: CC(C)(C)c1ccn(C2CCN(c3cccc(C(F)(F)F)c3)C2=S)n1 (stereo not drawn)
0

Would you mind telling me what Plant response rating, Rice value was observed for CC(C)(C)c1ccn(C2CCN(c3cc(Cl)cc(Cl)c3)C2=O)n1 (stereo not drawn) ?
0

What Plant response rating, Rice value was documented for this compound, Cc1ccc(N2CCC(n3ccc(C(C)(C)C)n3)C2=O)cc1OC(C)C (stereo not drawn) ?
0

Which Plant response rating, Rice is listed for CCCCC(C)c1ccn(C2OCN(c3cccc(C(F)(F)F)c3)C2=O)n1 (stereo not drawn) ?
30

Can you look up the measured Plant response rating, Rice of CCC(C)c1ccn(C2SCN(c3cccc(C(F)(F)F)c3)C2=O)n1 (stereo not drawn) for me?
0

Dear colleague, I am looking for the recorded Plant response rating, Rice of the following compound: CCCC(C)c1ccn(C2SCN(c3cccc(C(F)(F)F)c3)C2=O)n1 (stereo not drawn)
0

Form field: reported Plant response rating, Rice of CC(C)Oc1cccc(N2CCC(n3ccc(C(C)(C)C)n3)C2=O)c1 (stereo not drawn)
30

Quick one: Plant response rating, Rice of CC1(c2ccn(C3SCN(c4cccc(C(F)(F)F)c4)C3=O)n2)CC1 (stereo not drawn) ?
0

Which Plant response rating, Rice reading was recorded for the compound CC(C)OC(=O)c1cccc(N2CCC(n3ccc(C(C)(C)C)n3)C2=O)c1 (stereo not drawn) ?
0

Plant response rating, Rice lookup needed for CC(C)c1ccn(C2OCN(c3cccc(C(F)(F)F)c3)C2=O)n1 (stereo not drawn) , thanks.
40

# query: Plant response rating, Rice of entry CC(C)(C)c1ccn(C2OCN(c3cccc(OC(F)(F)F)c3)C2=O)n1 (stereo not drawn)
20

Sample CC(C)(C)c1ccn(C2CCN(c3cccc(Cl)c3)C2=O)n1 (stereo not drawn) — what was its Plant response rating, Rice?
70

Which Plant response rating, Rice value belongs to Cc1ccc(N2CCC(n3ccc(C(C)(C)C)n3)C2=O)cc1C(F)(F)F (stereo not drawn) ?
20

Param item = CCC(C)c1ccn(C2CCN(c3ccc(Cl)c(OC)c3)C2=O)n1 (stereo not drawn) ; retrieve measured Plant response rating, Rice.
20

Recorded Plant response rating, Rice of CC(C)(C)c1ccn(C2CCN(c3cccc(OC(F)(F)C(F)F)c3)C2=O)n1 (stereo not drawn) , please.
0

Record request: Plant response rating, Rice value, item CCCC(C)c1ccn(C2OCN(c3cccc(OC(F)(F)F)c3)C2=O)n1 (stereo not drawn)
0
